- target entity: HLA-A*03:01
- measurement description: IEDB peptide-MHC binding, purified MHC/direct/fluorescence; filed as Kd, often an IC50 or EC50 that approximates it; bounds were set here for any values at or beyond the usual limits of such assays
- protocol conditions: source organism: Influenza A virus (A/G.H/HK/793.1/02 (H5N1))
pKd: −log10 of the molar value.
endpoint label: pKd

Report value only: pKd, HLA-A*03:01, `RRKTNLYGF`
≤ 4.70

----------
- target entity: HLA-B*48:01
- measurement description: IEDB peptide-MHC binding, purified MHC/direct/fluorescence; filed as Kd, often an IC50 or EC50 that approximates it; bounds were set here for any values at or beyond the usual limits of such assays
- protocol conditions: source organism: Vibrio parahaemolyticus
endpoint label: Kd

DTWHGFKNM | ≥ 20 µM

From here, focus on the item given below.
Provide measured Kd value, entry: `LVAPHMAMM`
≥ 20 µM
